# experiment.summary: probe aNOTCH2 binding on compound microarray – biochemical, small-molecule microarray, 635/667 nm fluorescence, primary screen (AID 1121);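 also: score merges feature fluorescence read at 667 nm with its signal to noise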
# experimental.setup: higher = more signal
Measured composite z-score accompanies every entry in the list below.
// response body must contain only the number

Here is how some molecules turned out for composite z-score.
CS(=O)(=O)CCOC(=O)C1=CC(CCCO)=CC(c2ccc(CN3CCCC3)cc2)N(Cc2cccc(OC(F)(F)F)c2)C=C1C(=O)OCCS(C)(=O)=O (centres undefined) : -0.0254
O=C1C2C=CC(C(O)c3c(F)cccc3Cl)N(Nc3ccccc3F)C2C(=O)N1c1ccccc1 (centres undefined) : -0.0216
[N-]=[N+]=Nc1ccccc1[C@H]1OC(c2ccc(OCCCO)cc2)=N[C@@]1(Cc1ccccc1)C(=O)N1CCOCC1 : 0.132

Please turn your attention to the following entry.
Please fill in: composite z-score reported for COc1ccc(C(O)C2C=CC3C(=O)N(C)C(=O)C3N2NC(=O)OC(C)(C)C)c2ccccc12 (centres undefined) = 0.0315

* * *

# experiment.summary: inhibition of PAO1 biofilm formation – strain PAO1, LB-PBS medium, absorbance 600 nm, primary screen (AID 1176); also: test concentration not given here
# experimental.setup: P. aeruginosa PAO1 growth/biofilm, A600, 12 h; higher = more signal
assay.endpoint: z-score
Just the number, please.

O=C1C2C=CC(C(O)c3ccc4c(c3)OCO4)N(Nc3ccc([N+](=O)[O-])cc3)C2C(=O)N1c1ccccc1 (centres undefined) : 0.0641

The reported z-score of the molecule O=C(O)[C@H](Cc1ccccc1)n1cc(-c2ccccc2)nn1 was 0.738

Reported z-score of CCCCN1CC=CC23O[C@@H]4/C=C\CCCOC(=O)C4[C@H]2C(=O)N(CCCO)[C@@H]3C1=O (some centres undefined) : 0.55

Looking up O=c1cccc(-c2ccccc2Cl)o1 , I see its z-score listed as -0.0043

* * *

List of composite z-score values.
# experiment.summary: binders of probe aHhip on microarray, primary screen, stem cell growth factor project, biochemical, small-molecule microarray, fluorescence 635/667 (AID 1087);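 also: score merges spot fluorescence at 667nm with spot signal to noise ratio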
# experimental.setup: higher = more signal

Solved cases (10 shown):
CS(=O)(=O)CCOC(=O)C1=CC(CCCO)=CC(c2ccc(CN3CCCC3)cc2)N(Cc2cccc(OC(F)(F)F)c2)C=C1C(=O)OCCS(C)(=O)=O (stereo unspecified) : 0.154
O=C1NC(=O)C2C1C=CC(C(O)c1ccc(I)cc1)N2Nc1ccccn1 (stereo unspecified) : -0.0173
COc1ccc(CCNC(=O)[C@@]2(C)c3ccccc3C(=O)N(c3ccc(C)cn3)[C@H]2c2ccc(CO)cc2)cc1 : -0.13
NC(=O)[C@@H]1[C@H]2C(=O)O[C@H](c3ccccc3)[C@H](c3ccccc3)N2[C@H](c2ccc(O)cc2)[C@@]12C(=O)Nc1ccc(C#CC3=CCCCC3)cc12 : -0.357
NC(=O)[C@@]1(Cc2ccccc2)N=C(c2ccc(OCCCO)cc2)O[C@H]1c1ccccc1 : -0.189
CCCCCCc1nc(-c2ccc(-c3ccc(Cl)c(Cl)c3)o2)cc2c1[Si](C(C)C)(C(C)C)O[C@H]2c1ccccc1 : 0.0505
C=CC[C@]1(C(N)=O)N=C(c2ccc(OCCCO)cc2)O[C@H]1c1ccccc1 : -0.0296
COc1ccc(-c2cc3c(c(Cc4ccccc4)n2)[Si](C(C)C)(C(C)C)OC3)cn1 : -0.236
CO[C@H]1O[C@H](CO)[C@@H](OC(=O)Nc2ccccc2)[C@@H]2OC(=O)[C@@H](Cc3ccc4ccccc4c3)C/C=C/C[C@H](Cc3ccc4ccccc4c3)C(=O)O[C@@H]12 : -0.191
Cc1ccc(C2C3C(=O)CC4C(=O)N(c5ccccc5)C(=O)C4C3CN2S(=O)(=O)c2ccc(C)cc2)cc1 (stereo unspecified) : 0.365

Entry COC(=O)[C@@]1(Cc2ccc(OC)cc2)[C@H]2c3cc(C(=O)N4CCCC4)n(CCSCCO)c3C[C@H]2CN1C(=O)c1ccccc1 — recorded composite z-score = 0.455

Lab note: O=C1OCC=C[C@H]2OC34C=CCN(CCN5CCOCC5)C(=O)[C@H]3N(CCO)C(=O)[C@@H]4[C@@H]12 (stereo partly specified) gave composite z-score of -0.412

// field: composite z-score; key: C=CCNC(=O)[C@@H]1[C@H]2C(=O)O[C@H](c3ccccc3)[C@H](c3ccccc3)N2[C@H](c2ccc(OCCO)cc2)[C@@]12C(=O)N(C(=O)OCCOC)c1ccc(C#CCC(C(=O)OC)C(=O)OC)cc12 ; value = 0.386

Short answer for Cc1ccc([C@H]2C(C(=O)O)=CCN2S(=O)(=O)c2ccc(C)cc2)cc1 : composite z-score was -0.0305

The reported composite z-score of the compound O=C(NCCN1CCOCC1)[C@@H]1c2ccccc2C(=O)N(Cc2cc(C(F)(F)F)cc(C(F)(F)F)c2)[C@H]1c1ccc(CO)cc1 was -0.0994

composite z-score measured on CC(C)Cc1ccc(CN2CC[C@@H](N)C2)cc1 = -0.0193
